- targetSystem: PI3K-gamma (Homo sapiens, UniProt P48736)
- Sequence (P48736 whole entry, species assumed): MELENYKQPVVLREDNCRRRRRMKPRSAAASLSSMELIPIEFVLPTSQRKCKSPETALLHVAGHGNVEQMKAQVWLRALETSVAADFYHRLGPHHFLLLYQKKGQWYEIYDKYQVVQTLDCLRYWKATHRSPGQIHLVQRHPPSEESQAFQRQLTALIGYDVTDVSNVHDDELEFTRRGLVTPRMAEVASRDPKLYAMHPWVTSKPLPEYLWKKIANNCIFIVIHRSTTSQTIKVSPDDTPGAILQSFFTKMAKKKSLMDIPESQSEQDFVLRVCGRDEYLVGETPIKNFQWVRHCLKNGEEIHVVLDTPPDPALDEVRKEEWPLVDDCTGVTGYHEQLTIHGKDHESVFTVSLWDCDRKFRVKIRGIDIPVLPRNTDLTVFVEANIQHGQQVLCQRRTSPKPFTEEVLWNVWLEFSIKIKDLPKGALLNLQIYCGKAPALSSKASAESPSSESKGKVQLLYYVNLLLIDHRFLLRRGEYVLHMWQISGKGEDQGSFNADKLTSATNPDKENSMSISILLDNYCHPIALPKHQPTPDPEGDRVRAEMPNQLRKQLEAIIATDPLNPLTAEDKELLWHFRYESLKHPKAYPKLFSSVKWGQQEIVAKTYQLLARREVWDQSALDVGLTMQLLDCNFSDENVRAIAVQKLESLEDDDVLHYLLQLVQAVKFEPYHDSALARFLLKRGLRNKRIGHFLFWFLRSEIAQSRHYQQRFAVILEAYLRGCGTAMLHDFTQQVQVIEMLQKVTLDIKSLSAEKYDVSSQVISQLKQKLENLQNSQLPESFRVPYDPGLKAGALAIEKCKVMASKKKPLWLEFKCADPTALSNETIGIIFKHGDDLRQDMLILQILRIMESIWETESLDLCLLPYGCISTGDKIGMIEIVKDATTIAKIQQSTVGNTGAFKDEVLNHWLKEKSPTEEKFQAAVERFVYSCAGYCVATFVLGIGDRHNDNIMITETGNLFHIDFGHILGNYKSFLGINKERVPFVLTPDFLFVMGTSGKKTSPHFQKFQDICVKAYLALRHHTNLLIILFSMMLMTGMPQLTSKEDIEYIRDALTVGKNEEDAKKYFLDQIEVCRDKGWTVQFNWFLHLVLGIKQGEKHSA
- testSummary: PI3K-gamma fluorescence polarization assay
- Type: biochemical
- setupConditions: PI3Kγ Avg. IC50
Measured IC50 of individual entries

Cn1cc(/C=C2\Oc3ccc(O)cc3C2=O)c2c(-c3ccccc3)cccc21 > 10000 nM
COc1cc(O)c2c(c1)O/C(=C\c1c(-c3ccccc3)n(C)c3ccccc13)C2=O > 10000 nM
Cn1c(-c2ccccn2)c(C=C2Oc3cc(O)cc(O)c3C2=O)c2ccccc21 > 10000 nM
COc1ccc2c(c1)c(/C=C1\Oc3cc(O)ccc3C1=O)c(C)n2CCCN1CCCC1 408 nM

Exercise: What IC50 value was documented for this compound, COc1ccc2c(c1)c(/C=C1\Oc3cc(Br)ccc3C1=O)cn2CCCN(C)C ?
Key: 5610 nM

Exercise: Would you kindly repeat that for CNC(=O)Nc1ccc2c(c1)C(=O)/C(=C/c1c(-c3c(C)nn(C)c3C)[nH]c3c(OC)c(F)c(OC)cc13)O2 ?
Key: 246 nM

Exercise: Would you kindly repeat that for COc1ccc2c(c1)c(/C=C1\Oc3c(ccc(O)c3C)C1=O)c(C)n2CCN1CCN(C)CC1 ?
Key: 8670 nM

Exercise: Would you kindly repeat that for N#CCCCn1cc(C=C2Oc3cc(O)cc(O)c3C2=O)c2c(O)cccc21 ?
Key: 2240 nM

Exercise: Would you kindly repeat that for COc1ccc2c(c1)c(/C=C1\Oc3cc(O)cc(O)c3C1=O)cn2CCO ?
Key: 92.5 nM

Exercise: Would you kindly repeat that for CCn1c(C)c(/C=C2\Oc3ccc(NC(=O)Nc4ccc(CCCN(C)C)cc4)cc3C2=O)c2cc(OC)ccc21 ?
Key: 25 nM

Exercise: Would you kindly repeat that for CNC(=O)Nc1ccc2c(c1)C(=O)/C(=C/c1c(C)n(CCCn3ccnc3)c3ccc(OC)cc13)O2 ?
Key: 417 nM

Exercise: Would you kindly repeat that for Cn1cc(/C=C2\Oc3cc(O)cc(O)c3C2=O)c2c(-c3ccc(C#N)cc3)cccc21 ?
Key: 4570 nM

Exercise: Would you kindly repeat that for COc1ccc2c(c1)c(/C=C1\Oc3ccc(NC(=O)Nc4ccc(N(C)C)cc4)cc3C1=O)c(C)n2CCN1CCN(C)CC1 ?
Key: 1910 nM

Exercise: Would you kindly repeat that for CCn1c(C)c(/C=C2\Oc3ccc(NC(=O)Nc4ccc(N(C)CCN(C)C)cc4)cc3C2=O)c2cc(OC)ccc21 ?
Key: 18 nM

Exercise: Would you kindly repeat that for CNC(=O)Nc1ccc2c(c1)C(=O)/C(=C/c1c(C#N)[nH]c3ccc(OC)cc13)O2 ?
Key: > 10000 nM

Exercise: Would you kindly repeat that for CN(C)c1ccc(-c2cccc3c2c(/C=C2\Oc4cc(O)cc(O)c4C2=O)cn3C)cc1 ?
Key: 7630 nM

Taken from patent US20090311217A1.
